Test system: HOP-92
Protocol Text: NCI tumour cell line growth inhibition, 48 h
Activity calls are given as the source filed them. Cut-off read from the data, not from the text of the source: active = GI50 up to about 1.1 µM and inactive = higher. Where a SMILES comes first, the peptide text is derived from it. The star is where a group is joined. Cbz = O=C(OCc1ccccc1)*
Give your call using only these classes: t = active, f = inactive

Worked examples, 3 compounds total:
CO/C(N)=C(C#N)/N=C/c1ccc2ccccc2c1 ... f
CCOC(=O)CCC(NC(=O)C(Cc1ccccc1)NC(=O)OCc1ccccc1)C(=O)OCC (stereo not drawn) (Cbz-Phe-Glu(OEt)-OEt; configuration not given here) ... f
CCOC(=O)C1C2CCC(C2)C1(CCl)C(=O)OCC (centres undefined) ... f

Let us examine a further case.
Request: Kindly provide the recorded test outcome for the following compound: `COc1cc2c(cc1OCCCN1CCN(C)CC1)N=C[C@@H]1CCCN1C2=O`
Result: t

###

The entries below are paired with their reported GI50.
Tested on: ACHN
Protocol Text: NCI tumour cell line growth inhibition, 48 h
Activity calls are given as the source filed them. No stated cut-off is given here; in the data, active = GI50 up to about 1.1 µM and inactive = higher.

O=S(=O)(c1cccc(C(F)(F)F)c1)N1c2ccccc2-n2cccc2C1c1cccnc1 (stereo not given) ... > 46.5 µM (inactive)

Request: Look at this molecule and give its reported GI50. Cc1ccc(NC(=O)/C(CC2Nc3c(ccc4c3C(=O)c3ccccc3C4=O)NC2O)=N/NC(C)(C)C)cc1 (stereo not given)
Result: 12.4 µM (inactive)

Request: Note, next up: `CCOC(=O)c1c(NS(=O)(=O)c2ccccc2)sc2c1CCCC2`
Result: 64.6 µM (inactive)

Request: Note, next up: CC1=C(C#N)C(=O)CC(c2ccc(Cl)cc2)N(C)N1 (stereo not given)
Result: > 100 µM (inactive)

Request: Note, next up: `O=[N+]([O-])c1ccc2c(c1)c(S(=O)(=O)O)cc1nonc12`
Result: > 100 µM (inactive)

###

Tested on: HL-60
Protocol Text: NCI tumour cell line growth inhibition, 48 h
The source made the active and inactive calls. Cut-off read from the data, not from the text of the source: active = GI50 up to about 1.1 µM and inactive = higher.
The entries below are paired with their reported GI50.

# example entries with known answers
COC1C(=[N+]=[N-])C(=O)NC(=O)N1C1OC(COC(c2ccccc2)(c2ccccc2)c2ccccc2)C(O)C1O (centres undefined) ... 23.2 µM (inactive)
COc1ccc(/C=C(\C(=O)OCC(C)C)c2ccc(OC)c(OC)c2)cc1OC ... > 100 µM (inactive)
COc1ccc2c(c1)CN([C@@H](C)[C@H]1CC[C@H]3[C@@H]4CC[C@H]5C[C@@H](O)CC[C@]5(C)[C@H]4CC[C@]13C)CO2 ... 2.47 µM (inactive)
CC1(C)CCC[C@@]2(C)C1C[C@H](O)[C@@]1(C)O[C@@](C)([C@H](O)CO)CCC21 (some centres undefined) ... 24.9 µM (inactive)
COc1cc(COC(=O)N2CSCC2C(=O)O)c([N+](=O)[O-])cc1OC (centres undefined) ... > 100 µM (inactive)
Cc1ccc(S(=O)(=O)OC2CN3CCC2CC3)cc1 (centres undefined) ... 22.6 µM (inactive)

Request: Look at this compound and give its reported GI50. `O=c1/c(=C/c2ccc([N+](=O)[O-])o2)sc2n1[C@@H](c1ccc(Cl)cc1)C=C(c1cc(F)c(Cl)cc1Cl)N=2`
Result: 12.3 µM (inactive)

Request: Note, next up: C/C(=N\NC(=S)NC(CCC(=O)O)C(=O)O)c1ccccn1 (centres undefined)
Result: > 100 µM (inactive)

Request: Note, next up: `Oc1ccc(O)c(-n2cccn2)c1-n1cccn1`
Result: > 10 µM (inactive)

Request: Note, next up: `COc1ccc2nc(NC(=O)/C(C#N)=C/c3ccccc3)sc2c1`
Result: 9.35 µM (inactive)

Request: Note, next up: CC(C)(C)OC(=O)NC1CCCCC1NC(=O)C(=O)NC1CCCCC1NC(=O)OC(C)(C)C (centres undefined)
Result: > 100 µM (inactive)

Request: Note, next up: `CCCCCCCCCCCC1=C(O)C(=O)C(CC2=C(O)C(=O)C(CCCCCCCCCCC)=C(O)C2=O)=C(O)C1=O`
Result: > 10 µM (inactive)

Request: Note, next up: CC(=O)NC1=C(C)C(=O)c2c(nc3n2CCC3O)C1=O (centres undefined)
Result: 8.28 µM (inactive)

Request: Note, next up: `CCc1ccccc1NC(=O)CCc1nnc(S)[nH]1`
Result: > 100 µM (inactive)

###

Test system: LOX IMVI
Protocol Text: NCI tumour cell line growth inhibition, 48 h
Calls of active or inactive are those of the source. Rule as the data show it: active = GI50 up to about 1.1 µM and inactive = higher.
Give your call using only these classes: Y for active, N for inactive

Worked examples, 6 compounds total:
O=c1[nH]c(=O)n(C2CC(O)C(CO)O2)cc1OCCc1ccccc1 (stereo not given) ... N
NC(=O)/C=c1/c2ccccc2n2nc3ccccc3c12 ... N
O=C(O)c1ccccc1NC(=S)c1ccccc1 ... N
Cc1ccc2nc(NC(=O)C(=O)C3C(=O)NC(=S)NC3=O)sc2c1 ... N
Cc1csc(NNC(=O)Nc2ccccc2)n1 ... N
CC(C)Oc1c(C2(c3ccccc3)SCCCS2)c(=O)c1=O ... N

Request: Kindly provide the recorded test outcome for the following compound: CCOC(=O)C1C2CCC(C2)C1(CCl)C(=O)OCC (stereo not given)
Result: N

Request: Note, next up: COc1cc([C@@H]2c3cc4c(cc3[C@@H](OC3OC5COC(C)OC5C(OC(=O)CN5CCN(C)CC5)C3OC(=O)CN3CCN(C)CC3)C3COC(=O)[C@@H]32)OCO4)cc(OC)c1OC(=O)CN1CCN(C)CC1 (stereo not given in full)
Result: N

Request: Note, next up: CC(C)C1=CC23CCC4C(C)(C(=O)O)CCCC4(C)C2CC1C1C(=O)N(c2ccccc2)C(=O)C13 (stereo not given)
Result: N

Request: Note, next up: `O=C(Nc1ccccc1)OCc1nc2c([nH]1)C(=O)C=CC2=O`
Result: N

Request: Note, next up: `CCOC(=O)CCc1c(C)c2ccc(O)cc2oc1=O`
Result: N

Request: Note, next up: `O=C(CSc1nnc(-c2ccc(/N=C\c3ccc(Cl)cc3)cc2)o1)Nc1ccc([N+](=O)[O-])cc1`
Result: N

Request: Note, next up: CC(C(O)c1ccccc1)[N+](=O)[O-] (stereo not given)
Result: N

Request: Note, next up: `Cc1ccc(Nc2nc(=O)c3c([nH]c4ccccc43)s2)cc1`
Result: N

Request: Note, next up: CC(C)(C)C1=NN=C2c3ccccc3C(=O)C21 (stereo not given)
Result: N

Request: Note, next up: `O=CNc1ccccc1OCCOc1ccccc1NC=O`
Result: N

Request: Note, next up: `N#Cc1cc(C#N)c(Cl)nc1N`
Result: N

Request: Note, next up: OCC(CCc1c[nH]c2ccccc12)c1c[nH]c2ccccc12 (stereo not given)
Result: N

Request: Note, next up: `COc1cc(/C=C2\S/C(=N/Nc3nc(-c4ccc(Br)cc4)cs3)NC2=O)cc(OC)c1OC`
Result: N

Request: Note, next up: `O=C1C=CC(=O)C1(Br)Br`
Result: N

Request: Note, next up: O=NN1C(c2ccccc2)CNC(=O)CC1c1ccccc1 (stereo not given)
Result: N

Request: Note, next up: `O=C1Nc2ccccc2/C1=N/NC(=S)Nc1ccc([N+](=O)[O-])cc1`
Result: N

Request: Note, next up: CS(=O)(=O)Nc1ccc2c(c1)N(S(C)(=O)=O)CC2COS(C)(=O)=O (stereo not given)
Result: N

Request: Note, next up: `Cc1ccnc2c1ccc1nc3ccccc3n12`
Result: N

Request: Note, next up: `COc1ccc2nc3ccccc3c(NCCCCN(CCCl)CCCl)c2c1`
Result: Y

###

The entries below are paired with their reported GI50.
Test system: SW-620
Protocol Text: NCI tumour cell line growth inhibition, 48 h
Calls of active or inactive are those of the source. Cut-off read from the data, not from the text of the source: active = GI50 up to about 1.1 µM and inactive = higher.

Request: Look at this compound and give its reported GI50. `COc1cccc(NC(=O)C(C#N)=C(SC)SC)c1`
Result: > 100 µM (inactive)

Request: Note, next up: NC12CCC(CC1=O)C2 (stereo not given)
Result: > 100 µM (inactive)

Request: Note, next up: COc1ccc(N[S+]([O-])CCCc2ccccc2)cc1 (stereo not given)
Result: > 100 µM (inactive)

Request: Note, next up: `CC(=O)Oc1c(C)cc2c(c1C)C(C)(C)CN2C(=O)C(C)(C)C`
Result: > 100 µM (inactive)

Request: Note, next up: `CCc1c(C#N)c(=O)[nH]c(=O)n1CCN1CCN(C(=O)NCCCCCCNC(=O)N2CCN(CCn3c(CC)c(C#N)c(=O)[nH]c3=O)CC2)CC1`
Result: > 100 µM (inactive)

Request: Note, next up: `COc1ccccc1/[N+]([O-])=C/c1ccccc1OC(=S)S`
Result: 44.5 µM (inactive)

Request: Note, next up: Fc1ccc(C(OCCN2CCC3CCC(C2)N3C/C=C/c2ccco2)c2ccc(F)cc2)cc1 (stereo not given)
Result: 7.96 µM (inactive)

Request: Note, next up: COc1ccc(/N=N/c2c(C)c(C#N)c(=S)n(C3OC(CO)C(O)C(O)C3O)c2-c2ccccc2)cc1 (stereo not given)
Result: 26.1 µM (inactive)

Request: Note, next up: O=C1CSC(C(/N=N/c2ccc(Cl)cc2)c2nc3ccccc3[nH]2)=N1 (stereo not given)
Result: > 100 µM (inactive)

Request: Note, next up: COc1ccc(C2C=C(c3ccc4c(c3)OCO4)Oc3c2c(=O)oc2ccccc32)cc1OC (stereo not given)
Result: 0.468 µM (active)
